Give koff for every item shown.
- system_name: Canine_OSMR_hlgG1_Fc (canine)
- Sequence (chain, as listed by the source limits assumed, form in doubt): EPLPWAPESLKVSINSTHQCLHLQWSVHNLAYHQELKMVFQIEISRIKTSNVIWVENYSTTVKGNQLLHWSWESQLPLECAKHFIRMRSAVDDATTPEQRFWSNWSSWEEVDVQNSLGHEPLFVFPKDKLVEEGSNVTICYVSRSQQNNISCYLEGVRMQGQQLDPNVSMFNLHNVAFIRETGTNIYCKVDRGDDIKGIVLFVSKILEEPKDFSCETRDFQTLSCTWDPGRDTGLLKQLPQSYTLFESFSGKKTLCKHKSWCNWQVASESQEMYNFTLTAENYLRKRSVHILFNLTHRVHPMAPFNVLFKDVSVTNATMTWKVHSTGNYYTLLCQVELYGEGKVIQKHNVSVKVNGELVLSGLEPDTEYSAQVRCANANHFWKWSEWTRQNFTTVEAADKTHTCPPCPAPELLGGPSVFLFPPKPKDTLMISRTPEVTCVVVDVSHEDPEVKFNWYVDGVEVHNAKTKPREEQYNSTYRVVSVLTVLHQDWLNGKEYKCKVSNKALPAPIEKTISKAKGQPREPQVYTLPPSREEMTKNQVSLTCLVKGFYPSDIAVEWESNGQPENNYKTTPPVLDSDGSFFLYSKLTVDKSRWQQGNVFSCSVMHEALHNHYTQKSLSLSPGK
- protocol_details: SPR Biacore
Please respond with the number in s⁻¹ and leave the unit unwritten.

Incoming: // koff lookup, key: Mu_10F07_VL (SEQ ID NO: 41)_W96A (antibody, V domains shown) VH: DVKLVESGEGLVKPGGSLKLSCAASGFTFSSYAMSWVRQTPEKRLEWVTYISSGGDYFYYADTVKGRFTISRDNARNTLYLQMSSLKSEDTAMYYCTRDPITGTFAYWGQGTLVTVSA VL: DIQMTQTTSSLSASLGDRVTISCRASQDITNYLNWYQQKPDGTVKLLIYYTSTLHSGVPSRFSGSGSGTDFSLTISNLEQEDIATYFCQQGHMLPATFGGGTKLEIKR
Outgoing: 8.63

Incoming: Same again, this time with Mu_10F07_VH (SEQ ID NO: 39)_D99A (antibody, V domains shown) VH: DVKLVESGEGLVKPGGSLKLSCAASGFTFSSYAMSWVRQTPEKRLEWVTYISSGGDYFYYADTVKGRFTISRDNARNTLYLQMSSLKSEDTAMYYCTRAPITGTFAYWGQGTLVTVSA VL: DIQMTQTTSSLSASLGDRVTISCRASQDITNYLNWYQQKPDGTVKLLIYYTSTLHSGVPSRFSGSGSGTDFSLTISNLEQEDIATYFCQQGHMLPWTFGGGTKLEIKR
Outgoing: 0.000576

Incoming: Same again, this time with Mu_02D09_VL (SEQ ID NO: 33)_S56A (antibody, V domains shown) VH: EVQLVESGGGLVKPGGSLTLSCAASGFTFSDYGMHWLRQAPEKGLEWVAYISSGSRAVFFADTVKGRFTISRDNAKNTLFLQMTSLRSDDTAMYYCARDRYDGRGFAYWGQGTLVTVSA VL: DIVLTQSPATLSVTPGDSVSLSCRASQSISNNLHWYQQTSHESPRLLITYASQSIAGIPSRFSGSGSGTDFTLSINSVETEDFGMYFCQQSNSWPLTFGAGTKLELKR
Outgoing: 0.00653
